Test system: Mycobacterium tuberculosis Erdman (autoluminescent)
Method summary: total FIC50 (Loewe) at 50% inhibition, three-drug combination (log2); higher = more antagonistic
Setup conditions: in vitro model: standard 7H9 glycerol; time point: constant = terminal
total FIC50 for assorted molecules
Property: total FIC50

Molecule	Property	Endpoint result
CC(C)/N=c1\cc2n(-c3ccc(Cl)cc3)c3ccccc3nc-2cc1Nc1ccc(Cl)cc1 [clofazimine] + O=[N+]([O-])c1cn2c(n1)OC[C@@H](OCc1ccc(OC(F)(F)F)cc1)C2 [pretomanid] + NC(=O)c1cnccn1 [pyrazinamide]	total FIC50	-0.2
COc1nc2ccc(Br)cc2cc1[C@@H](c1ccccc1)[C@@](O)(CCN(C)C)c1cccc2ccccc12 [bedaquiline] + COc1c(N2C[C@@H]3CCCN[C@@H]3C2)c(F)cc2c(=O)c(C(=O)O)cn(C3CC3)c12 [moxifloxacin] + O=[N+]([O-])c1cn2c(n1)OC[C@@H](OCc1ccc(OC(F)(F)F)cc1)C2 [pretomanid]	total FIC50	-0.0856
COc1nc2ccc(Br)cc2cc1[C@@H](c1ccccc1)[C@@](O)(CCN(C)C)c1cccc2ccccc12 [bedaquiline] + O=[N+]([O-])c1cn2c(n1)OC[C@@H](OCc1ccc(OC(F)(F)F)cc1)C2 [pretomanid] + CO[C@H]1/C=C/O[C@@]2(C)Oc3c(C)c(O)c4c(O)c(c(/C=N/N5CCN(C)CC5)c(O)c4c3C2=O)NC(=O)/C(C)=C\C=C\[C@H](C)[C@H](O)[C@@H](C)[C@@H](O)[C@@H](C)[C@H](OC(C)=O)[C@@H]1C [rifampicin]	total FIC50	0.14

The reported numbers originate from the supplement of paper PMC8617591.
